Exercise: for every item that follows, state its recorded viability, T/C.
# System: 941728-121-R-J1-PDC complex spheroid viability
# Assay details: Anticancer human tumor 941728-121-R-J1-PDC patient-derived lung adenocarcinoma cell line growth inhibition [RAS]
# Settings: second compound 0.00949 µM; first compound 10 µM; active compounds read low
Give just the number in %; leave the unit off.

Reported viability, T/C of NC1c2ccccc2OC12CCN(c1cnc3c(N4CCCc5ncccc54)n[nH]c3n1)CC2 (stereo not drawn) + CCn1c(-c2cccnc2C(C)OC)c2c3cc(ccc31)N1CCOC(CC(NC(=O)C(C(C)C)N(C)C(=O)C3(F)CCN(C(=O)C#CC(C)(C)N(C)C)CC3)C(=O)N3CCCC(N3)C(=O)OCC(C)(C)C2)C1 : 15.4

Data point: NC1c2ccccc2OC12CCN(c1cnc3c(N4CCCc5ncccc54)n[nH]c3n1)CC2 (stereo not drawn) + CCn1c(-c2cc(N3CCN(C)CC3)cnc2C(C)OC)c2c3cc(ccc31)-c1csc(n1)CC(NC(=O)C1CC1C)C(=O)N1CCCC(N1)C(=O)OCC(C)(C)C2 ; viability, T/C = 9.84

Sure, the documented viability, T/C for CC1(O)CCCC1n1c(=O)c(C(F)F)cc2cnc(NC3CCN(S(C)(=O)=O)CC3)nc21 (stereo not drawn) + CCn1c(-c2cc(N3CCN(C)CC3)cnc2C(C)OC)c2c3cc(ccc31)-c1csc(n1)CC(NC(=O)C1CC1C)C(=O)N1CCCC(N1)C(=O)OCC(C)(C)C2 is 28.4

---

For each record, write down the corresponding viability, T/C.
# System: 941728-121-R-J1-PDC complex spheroid viability
# Assay details: Anticancer human tumor 941728-121-R-J1-PDC cell line growth inhibition [RAS]
# Settings: compound 10 µM; active compounds read low

Please fill in: viability, T/C reported for CCC(CC)c1cc(NC2CCC(N)C2)n2nccc2n1 (stereo not given) = 44% [middle of 4 runs]

What the record says about NC1c2ccccc2OC12CCN(c1cnc3c(N4CCCc5ncccc54)n[nH]c3n1)CC2 (stereo not given) : viability, T/C is 49% [middle of 4 runs]

The reported value for Cc1nc(N2CCC3(CC2)COC(C)C3N)c(CO)nc1Sc1ccnc(N)c1Cl (stereo not given) in terms of viability, T/C is 40.1% [middle of 4 runs]

Form field viability, T/C, entry C[C@@H](NC(=O)c1ncnc(N)c1Cl)c1ncc(C(=O)Nc2cc(C(F)(F)F)c(Cl)cn2)s1 : 45.7% [middle of 4 runs]

Per the record, CC(C)NCC(C(=O)N1CCN(c2ncnc3c2C(C)CC3O)CC1)c1ccc(Cl)cc1 (stereo not given) has viability, T/C of 42.7% [middle of 4 runs]

---

# Test system: 941728-121-R-J1-PDC complex spheroid viability
# Assay details: Anticancer human tumor 941728-121-R-J1-PDC cell line growth inhibition [RAS]
# Settings: second compound 10 µM; first compound 0.00316 µM; active compounds read low
Property: viability, T/C (%)
Answer with a number only, understood to be in %.

# viability, T/C of C=CC(=O)N1CCN(c2nc(OCC3CCCN3C)nc3c(F)c(-c4nc(N)cc(C)c4C(F)(F)F)c(Cl)cc23)C(C)C1 (stereo unspecified) + C#Cc1c(F)ccc2cc(O)cc(-c3ncc4c(N5CC6CCC(C5)N6)nc(OCC56CCCN5CC(F)C6)nc4c3F)c12 = 21.9

Short answer for CCN1CCN(Cc2ccc(Nc3ncc(F)c(-c4cc(F)c5nc(C)n(C(C)C)c5c4)n3)nc2)CC1 + C#Cc1c(F)ccc2cc(O)cc(-c3ncc4c(N5CC6CCC(C5)N6)nc(OCC56CCCN5CC(F)C6)nc4c3F)c12 : viability, T/C was 23.5

# compound C=CC(=O)Nc1cc(Nc2nccc(-c3cn(C)c4ccccc34)n2)c(OC)cc1N(C)CCN(C)C + C#Cc1c(F)ccc2cc(O)cc(-c3ncc4c(N5CC6CCC(C5)N6)nc(OCC56CCCN5CC(F)C6)nc4c3F)c12 ; its viability, T/C = 22.1

Please fill in: viability, T/C reported for Nc1ccn(C2OC(CO)C(O)C2(F)F)c(=O)n1 (stereo unspecified) + C#Cc1c(F)ccc2cc(O)cc(-c3ncc4c(N5CC6CCC(C5)N6)nc(OCC56CCCN5CC(F)C6)nc4c3F)c12 = 23.6

compound CC(C)n1nc(-c2ccc3oc(N)nc3c2)c2c(N)ncnc21 + C#Cc1c(F)ccc2cc(O)cc(-c3ncc4c(N5CC6CCC(C5)N6)nc(OCC56CCCN5CC(F)C6)nc4c3F)c12 , viability, T/C observed: 20

// O=C(c1ccc(F)c(F)c1Nc1ccc(I)cc1F)N1CC(O)([C@@H]2CCCCN2)C1 + C#Cc1c(F)ccc2cc(O)cc(-c3ncc4c(N5CC6CCC(C5)N6)nc(OCC56CCCN5CC(F)C6)nc4c3F)c12 : viability, T/C value = 22

---

Exercise: for every item that follows, state its recorded viability, T/C.
# Tested on: 941728-121-R-J1-PDC complex spheroid viability
# Assay details: Anticancer human tumor 941728-121-R-J1-PDC cell line growth inhibition [RAS];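 note: spheroids exposed to compounds for 7 days before readout; 100% = DMSO vehicle control viability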
# Settings: second compound 0.1 µM; first compound 0.0316 µM; active compounds read low

// sample Nc1ccn(C2OC(CO)C(O)C2(F)F)c(=O)n1 (stereo not drawn) + C=CC(=O)N1CCN(c2nc(OCC3CCCN3C)nc3c(F)c(-c4nc(N)cc(C)c4C(F)(F)F)c(Cl)cc23)C(C)C1 , its viability, T/C was 15.4%

Reported viability, T/C ( Cc1nc(N2CCC3(CC2)COC(C)C3N)c(CO)nc1Sc1ccnc(N)c1Cl (stereo not drawn) + C=CC(=O)N1CCN(c2nc(OCC3CCCN3C)nc3c(F)c(-c4nc(N)cc(C)c4C(F)(F)F)c(Cl)cc23)C(C)C1 ) = 19%

Nc1ccn(C2OC(CO)C(O)C2(F)F)c(=O)n1 (stereo not drawn) + C#Cc1c(F)ccc2cc(O)cc(-c3ncc4c(N5CC6CCC(C5)N6)nc(OCC56CCCN5CC(F)C6)nc4c3F)c12 has a reported viability, T/C of 41.7%

---

# Test system: 941728-121-R-J1-PDC complex spheroid viability
# Assay details: Anticancer human tumor 941728-121-R-J1-PDC cell line growth inhibition [RAS];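 note: spheroids exposed to compounds for 7 days before readout; 100% = DMSO vehicle control viability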
# Settings: compound 0.00316 µM; active compounds read low
Property: viability, T/C

For record O=C(c1ccc(F)c(F)c1Nc1ccc(I)cc1F)N1CC(O)([C@@H]2CCCCN2)C1 the listed viability, T/C is 80.3% [middle of 4 runs]

Record C=CC(=O)Nc1cc(Nc2nccc(-c3cn(C)c4ccccc34)n2)c(OC)cc1N(C)CCN(C)C , field viability, T/C: 98.4% [middle of 4 runs]

// sample C=CC(=O)N1CCN(c2nc(OCC3CCCN3C)nc3c(F)c(-c4nc(N)cc(C)c4C(F)(F)F)c(Cl)cc23)C(C)C1 (stereo not given) , its viability, T/C was 21.7% [middle of 12 runs]

The molecule listed as CCN1CCN(Cc2ccc(Nc3ncc(F)c(-c4cc(F)c5nc(C)n(C(C)C)c5c4)n3)nc2)CC1 has a reported viability, T/C of 93.9% [middle of 4 runs]

Notebook: CC(C)n1nc(-c2ccc3oc(N)nc3c2)c2c(N)ncnc21 , viability, T/C read as 60.5% [middle of 4 runs]

---

# Tested on: 941728-121-R-J1-PDC complex spheroid viability
# Assay details: Anticancer human tumor 941728-121-R-J1-PDC cell line growth inhibition [RAS];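 note: spheroids exposed to compounds for 7 days before readout; 100% = DMSO vehicle control viability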
# Settings: compound 10 µM; active compounds read low
For each of the compounds below, state its viability, T/C.

Bench note, 941728-121-R-J1-PDC complex spheroid viability: entry C#Cc1c(F)ccc2cc(O)cc(-c3ncc4c(N5CC6CCC(C5)N6)nc(OCC56CCCN5CC(F)C6)nc4c3F)c12 (centres undefined) , its viability, T/C = 23.3% [middle of 8 runs]

Response field viability, T/C (941728-121-R-J1-PDC complex spheroid viability) for item CC(=O)OC12COC1CC(O)C1(C)C(=O)C(O)C3=C(C)C(OC(=O)C(O)C(NC(=O)OC(C)(C)C)c4ccccc4)CC(O)(C(OC(=O)c4ccccc4)C21)C3(C)C (centres undefined) : 56.4% [middle of 4 runs]

Log: 941728-121-R-J1-PDC complex spheroid viability, compound CC(Nc1ccc2c(c1)OCCn1cc(N3C(=O)OCC3C(F)F)nc1-2)C(N)=O (centres undefined) , viability, T/C = 34.7% [middle of 4 runs]

Entry CC1(O)CCCC1n1c(=O)c(C(F)F)cc2cnc(NC3CCN(S(C)(=O)=O)CC3)nc21 (centres undefined) , 941728-121-R-J1-PDC complex spheroid viability data, viability, T/C value: 51.8% [middle of 4 runs]

---

Answer each item with its documented viability, T/C.
# Test system: 941728-121-R-J1-PDC complex spheroid viability
# Assay details: Anticancer human tumor 941728-121-R-J1-PDC cell line growth inhibition [RAS];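 note: spheroids exposed to compounds for 7 days before readout; 100% = DMSO vehicle control viability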
# Settings: second compound 0.1 µM; first compound 0.0949 µM; active compounds read low
Answer format: numeric, % implied, no suffix.

Reported viability, T/C (941728-121-R-J1-PDC complex spheroid viability) for entry CCc1c2c(nc3ccc(O)cc13)-c1cc3c(c(=O)n1C2)COC(=O)[C@]3(O)CC + C=CC(=O)N1CCN(c2nc(OCC3CCCN3C)nc3c(F)c(-c4nc(N)cc(C)c4C(F)(F)F)c(Cl)cc23)C(C)C1 is 12.4

// assay 941728-121-R-J1-PDC complex spheroid viability, entry CC1(C)CCC(Nc2ncc(C(F)(F)F)c(-c3c[nH]c4c(P(C)(C)=O)c(C#N)ccc34)n2)CN1 (centres undefined) + C=CC(=O)N1CCN(c2nc(OCC3CCCN3C)nc3c(F)c(-c4nc(N)cc(C)c4C(F)(F)F)c(Cl)cc23)C(C)C1 , viability, T/C value = 17.8

The reported viability, T/C value, 941728-121-R-J1-PDC complex spheroid viability, for CC1(C)CCC(Nc2ncc(C(F)(F)F)c(-c3c[nH]c4c(P(C)(C)=O)c(C#N)ccc34)n2)CN1 (centres undefined) + C#Cc1c(F)ccc2cc(O)cc(-c3ncc4c(N5CC6CCC(C5)N6)nc(OCC56CCCN5CC(F)C6)nc4c3F)c12 reads 50.5

Hey, 941728-121-R-J1-PDC complex spheroid viability data for CCc1c2c(nc3ccc(O)cc13)-c1cc3c(c(=O)n1C2)COC(=O)[C@]3(O)CC + C#Cc1c(F)ccc2cc(O)cc(-c3ncc4c(N5CC6CCC(C5)N6)nc(OCC56CCCN5CC(F)C6)nc4c3F)c12 : viability, T/C came out at 48.4
